Biological target: T1, human protein C (human, UniProt P04070 43-461)
T1 construct: Zymogen form, coated on ELISA plates; also called hPC; PC
Assay: ELISA, plate coated with hPC 1 ug/mL, anti-hIgG-Fc-HRP
Procedure: The binding abilities of the anti-aPC monoclonal antibodies to haPC/hPC were assayed by Elisa. […] 1. ELISA plates were coated with haPC/hPC (1 ug/mL in PBS), 100 μL/well, at 4° C. overnight. […] 2. The plates were washed 3 times with PBST (0.1% Tween 20), 200 μL/well. […] 3. The plates were blocked with 2% BSA (PBS solution), 200 μL/well, at room temperature for 1 hour. […] 4. […] The reaction was quenched with HCl (1 M), 100 μL/well, and OD450 was read.
metric_name: Span

# example entries with known answers
binder | Span
HAPC-14-5 (antibody, V domains shown, Whole IgG, backbone hIgG1; also called HPAC 14-5) VH: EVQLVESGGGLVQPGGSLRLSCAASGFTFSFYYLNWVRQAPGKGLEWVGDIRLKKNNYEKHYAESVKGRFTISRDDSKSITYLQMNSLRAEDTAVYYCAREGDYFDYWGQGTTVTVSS VL: DIQLTQSPSSLSASVGDRVTITCRASESVDSFGATFMHWYQQKPGKAPKLLIYLASWLGSGVPSRFSGSGSGTDFTLTISSLQPEDFATYYCVQNNEDPYTFGQGTKLEIK | ~0.0475
HAPC-14-6 (antibody, V domains shown, Whole IgG, backbone hIgG1; also called HPAC 14-6; No. 6) VH: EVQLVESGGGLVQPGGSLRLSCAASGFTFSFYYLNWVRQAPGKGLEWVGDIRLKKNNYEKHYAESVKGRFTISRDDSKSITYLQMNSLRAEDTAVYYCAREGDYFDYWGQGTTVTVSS VL: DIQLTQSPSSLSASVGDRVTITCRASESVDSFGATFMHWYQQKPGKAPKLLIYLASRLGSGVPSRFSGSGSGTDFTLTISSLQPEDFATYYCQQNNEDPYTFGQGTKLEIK | ~0.0133

Consider now this further binder.
Problem: // lookup Span for HAPC-14-10 (antibody, V domains shown, Whole IgG, backbone hIgG1; also called HPAC 14-10) VH: EVQLVESGGGLVQPGGSLRLSCAASGFTFSNYYLNWVRQAPGKGLEWVGDIRLKKNNYEKHYAESVKGRFTISRDDSKSITYLQMNSLRAEDTAVYYCAREGDTFDYWGQGTTVTVSS VL: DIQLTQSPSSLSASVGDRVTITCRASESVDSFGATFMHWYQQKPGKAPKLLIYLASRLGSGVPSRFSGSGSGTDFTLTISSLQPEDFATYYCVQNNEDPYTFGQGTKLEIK
Result: ~0.00145
